# credit: patent US20090162351A1

assay.protocol: Monkey PK
experimental.conditions: in vivo; female monkey; read-out: Monkey (F) PK, t1/2 (converted)
measured.property: half-life (h)

> print(dat)
                                   molecule  measured.property  unit.info  val
1  C[C@@H]1CN(Cc2ccc(F)cc2)[C@@H](C)CN1C(=O)c1cc2c(C(=O)C(=O)N(C)C)cn(C)c2cc1Cl [SCIO-469 (SD 469)]          half-life          h  1.3

* * *

Tested on: LPS-induced TNF in human peripheral blood mononuclear cells (hPBMC)
assay.protocol: LPS-induced TNF in hPBMC
Type: cell-based
experimental.conditions: read-out: inhibitor of LPS-induced TNF hPBMC, IC50
pIC50: −log10 of the molar value.
measured.property: pIC50

> print(dat)
                                   compound   val
1  CC(=O)N1CCN(c2c(-c3ccncc3)c(-c3ccc(F)cc3)c(C#N)n2C)CC1 [JNJ 17089540 (RWJ 669307)]  6.66

* * *

System: bovine chondrocyte pellets / ARC tissues stimulated with IL-1β
assay.protocol: Chondrocyte pellet / ARC culture model: GAG degradation assay
Format: cell-based
experimental.conditions: Table 3B
measured.property: GAG Release, Pellet Assay (in words)

> print(dat)
                                   molecule        val
1  CC(C(=O)O)c1ccc(C(=O)c2ccccc2)s1 (stereo not drawn) [Tiaprofenic Acid, reference compound]  No effect
2  C[C@@H]1CN(Cc2ccc(F)cc2)[C@@H](C)CN1C(=O)c1cc2cc(C(=O)C(=O)N(C)C)[nH]c2cc1Cl [SCIO-282 (SD 282)]  No effect
3  CC1(C)O[C@@H]2[C@@H](CO[C@@]3(COS(N)(=O)=O)OC(C)(C)O[C@@H]23)O1 [Topramax, reference compound]  No effect

* * *

study.target: CYP2C9 (Homo sapiens, UniProt P11712)
Sequence (P11712 whole entry): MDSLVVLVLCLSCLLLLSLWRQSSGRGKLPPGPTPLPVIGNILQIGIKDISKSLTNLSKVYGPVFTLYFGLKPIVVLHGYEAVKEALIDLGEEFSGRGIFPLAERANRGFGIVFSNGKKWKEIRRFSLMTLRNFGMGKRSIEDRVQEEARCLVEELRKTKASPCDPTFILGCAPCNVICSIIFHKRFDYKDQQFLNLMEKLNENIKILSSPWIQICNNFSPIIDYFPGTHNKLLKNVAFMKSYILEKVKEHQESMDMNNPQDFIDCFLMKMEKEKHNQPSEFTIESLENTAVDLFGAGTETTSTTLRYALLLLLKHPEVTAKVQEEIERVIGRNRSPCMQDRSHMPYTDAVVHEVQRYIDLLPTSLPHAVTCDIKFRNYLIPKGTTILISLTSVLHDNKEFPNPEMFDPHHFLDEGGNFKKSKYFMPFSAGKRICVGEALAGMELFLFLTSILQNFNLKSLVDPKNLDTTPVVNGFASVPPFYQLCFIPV
assay.protocol: CYP2C9 inhibition
Format: in vitro ADME
measured.property: IC50 (nM)

> print(dat)
                                   molecule  measured.property  unit.info  val
1  C[C@@H]1CN(Cc2ccc(F)cc2)[C@@H](C)CN1C(=O)c1cc2cc(C(=O)C(=O)N(C)C)[nH]c2cc1Cl [SCIO-282 (SD 282)]               IC50         nM  500

* * *

study.target: CDK1 (Homo sapiens)
Sequence (P06493 whole entry, species assumed): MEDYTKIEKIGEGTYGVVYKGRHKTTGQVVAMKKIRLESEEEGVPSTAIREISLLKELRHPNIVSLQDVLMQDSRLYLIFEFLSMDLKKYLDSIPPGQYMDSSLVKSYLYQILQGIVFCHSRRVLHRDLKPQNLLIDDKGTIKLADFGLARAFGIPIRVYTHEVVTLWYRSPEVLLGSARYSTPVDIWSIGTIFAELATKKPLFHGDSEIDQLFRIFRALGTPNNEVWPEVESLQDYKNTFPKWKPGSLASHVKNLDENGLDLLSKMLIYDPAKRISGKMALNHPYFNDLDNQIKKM
Sequence (P14635 whole entry partner, species assumed): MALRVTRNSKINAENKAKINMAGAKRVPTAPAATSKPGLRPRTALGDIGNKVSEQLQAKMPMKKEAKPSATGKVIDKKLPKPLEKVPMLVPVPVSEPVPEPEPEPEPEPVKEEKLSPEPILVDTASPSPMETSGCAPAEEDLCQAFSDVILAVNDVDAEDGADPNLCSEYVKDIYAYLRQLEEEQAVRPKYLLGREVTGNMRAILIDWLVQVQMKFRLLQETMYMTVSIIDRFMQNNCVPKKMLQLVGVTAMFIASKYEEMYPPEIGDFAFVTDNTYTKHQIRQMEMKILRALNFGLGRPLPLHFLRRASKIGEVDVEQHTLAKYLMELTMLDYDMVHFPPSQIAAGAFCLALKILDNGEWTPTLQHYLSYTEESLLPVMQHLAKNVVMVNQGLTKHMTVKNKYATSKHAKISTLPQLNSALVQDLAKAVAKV
pIC50: −log10 of the molar value.
measured.property: pIC50

> print(dat)
                            molecule.smiles  measured.property   val
1  Nc1nc(Nc2ccc(S(N)(=O)=O)cc2)nn1C(=O)c1c(F)cccc1F              pIC50  8.05

* * *

Tested on: TNFα in human whole blood
assay.protocol: TNFα inhibition, human whole blood assay (h-WBA / HWB)
Format: cell-based
experimental.conditions: 10× diluted; read-out: inhibits TNFα h-WBA (EC50)
measured.property: EC50 (nM)

> print(dat)
                                   compound  unit.info  val
1  C[C@@H]1CN(Cc2ccc(F)cc2)[C@@H](C)CN1C(=O)c1cc2cc(C(=O)C(=O)N(C)C)[nH]c2cc1Cl [SCIO-282 (SD 282)]         nM   70

* * *

Listing of recorded pIC50 by entry.
study.target: p38α MAP kinase (h-p38α) (Homo sapiens)
Sequence (Q16539 whole entry): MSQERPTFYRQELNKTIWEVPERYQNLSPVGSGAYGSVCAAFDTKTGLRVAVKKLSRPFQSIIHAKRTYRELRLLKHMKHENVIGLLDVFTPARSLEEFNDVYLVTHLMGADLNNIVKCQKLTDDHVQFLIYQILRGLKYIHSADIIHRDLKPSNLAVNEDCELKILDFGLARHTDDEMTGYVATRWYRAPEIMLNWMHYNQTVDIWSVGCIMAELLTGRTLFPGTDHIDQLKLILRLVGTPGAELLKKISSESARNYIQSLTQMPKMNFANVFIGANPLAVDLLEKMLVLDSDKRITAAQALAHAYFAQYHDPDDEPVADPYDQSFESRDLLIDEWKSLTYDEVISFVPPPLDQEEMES
pIC50: −log10 of the molar value.
measured.property: pIC50

> print(dat)
                                   molecule   val
1  C[C@H](Nc1nccc(-c2c(-c3ccc(F)cc3)nc3nc(N)ccn23)n1)c1ccccc1 [JNJ 7583979 (RWJ 351958)]  9.00
2  CC(=O)N1CCN(c2c(-c3ccncc3)c(-c3ccc(F)cc3)c(C#N)n2C)CC1 [JNJ 17089540 (RWJ 669307)]  5.70
3  OCCC#Cc1nc(-c2ccc(F)cc2)c(-c2ccncc2)n1CCCc1ccccc1 [JNJ 3026582 (RWJ 67657)]  7.70

* * *

assay.protocol: Water solubility
Assay type: physicochemical
experimental.conditions: water (aqueous, simulated gastric fluid); at pH 2; read-out: solubility
measured.property: solubility

> print(dat)
                                   molecule           val
1  C[C@H](Nc1nccc(-c2c(-c3ccc(F)cc3)nc3nc(N)ccn23)n1)c1ccccc1 [JNJ 7583979 (RWJ 351958)]  > 1000 µg/mL

* * *

Test system: injured bovine articular cartilage explants in inflammatory medium
assay.protocol: Drop tower model: GAG degradation in injured cartilage explants
Format: cell-based
experimental.conditions: Bos taurus; at 10 μM; injured cartilage explants
From the text: In order to assess cartilage breakdown by inflammatory mediators and the effect of antagonists on those mediators, a cartilage impact model (the “drop tower model”) was established using a drop tower device to apply a peak compressive stress to a cartilage sample of about 20-30 MPa over an area of about 11-15 mm^2. […]
measured.property: inhibition at 10 µM (%)

> print(dat)
                                   compound                              study.target  val
1  COc1ccc(-n2nc(CCC(=O)N(C)O)cc2-c2ccc(Cl)cc2)cc1 [Tepoxalin, reference compound]  injured bovine articular cartilage explants in inflammatory medium  100
2  CNC(=O)[C@H](Cc1ccccc1)NC(=O)[C@H](CC(C)C)[C@H](CSc1cccs1)C(=O)NO [Batimastat, reference compound]  injured bovine articular cartilage explants in inflammatory medium  100
3  CC(C(=O)O)c1ccc(C(=O)c2ccccc2)s1 (stereo not shown) [Tiaprofenic Acid, reference compound]  injured bovine articular cartilage explants in inflammatory medium   70
4  Cc1ccc(C(=O)c2ccc(CC(=O)O)n2C)cc1 [Tolmetin, reference compound]  injured bovine articular cartilage explants in inflammatory medium   60

* * *

System: IL-1β-stimulated PGE2 synthesis in bovine chondrocyte pellets / ARC tissues
assay.protocol: Chondrocyte pellet / ARC culture model: Prostaglandin E2 assay;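 note: IC50 for inhibition of IL-1β-stimulated PGE2 synthesis from sigmoidal dose-response fit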
Assay type: cell-based
experimental.conditions: bovine ARCs, 7.5 ng/ml IL-1β, five days; sigmoidal dose-response fit; read-out: PGE2, IC50
measured.property: IC50 (µM)

> print(dat)
                                   compound                              study.target    val
1  CC(=O)N1CCN(c2c(-c3ccncc3)c(-c3ccc(F)cc3)c(C#N)n2C)CC1 [JNJ 17089540 (RWJ 669307)]  IL-1β-stimulated PGE2 synthesis in bovine chondrocyte pellets / ARC tissues   29.6
2  C[C@@H]1CN(Cc2ccc(F)cc2)[C@@H](C)CN1C(=O)c1cc2c(C(=O)C(=O)N(C)C)cn(C)c2cc1Cl [SCIO-469 (SD 469)]  IL-1β-stimulated PGE2 synthesis in bovine chondrocyte pellets / ARC tissues  0.107

* * *

assay.protocol: Monkey PK
experimental.conditions: in vivo; female monkey; read-out: Monkey (F) PK, F %
measured.property: bioavailability (%)

> print(dat)
                                   compound  unit.info  val
1  C[C@@H]1CN(Cc2ccc(F)cc2)[C@@H](C)CN1C(=O)c1cc2c(C(=O)C(=O)N(C)C)cn(C)c2cc1Cl [SCIO-469 (SD 469)]          %   12

* * *

Test system: IL-1β-stimulated PGE2 synthesis in bovine chondrocyte pellets / ARC tissues
assay.protocol: Chondrocyte pellet / ARC culture model: Prostaglandin E2 assay;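 note: IC50 for inhibition of IL-1β-stimulated PGE2 synthesis from sigmoidal dose-response fit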
Format: cell-based
experimental.conditions: Bos taurus, Chondrocyte, 120 h; bovine ARCs, 7.5 ng/ml IL-1β, five days; sigmoidal dose-response fit; read-out: PGE2, IC50
measured.property: IC50 (nM)

> print(dat)
                                   molecule                              study.target  measured.property  val
1  OCCC#Cc1nc(-c2ccc(F)cc2)c(-c2ccncc2)n1CCCc1ccccc1 [JNJ 3026582 (RWJ 67657)]  IL-1β-stimulated PGE2 synthesis in bovine chondrocyte pellets / ARC tissues               IC50  421
2  C[C@@H]1CN(Cc2ccc(F)cc2)[C@@H](C)CN1C(=O)c1cc2c(C(=O)C(=O)N(C)C)cn(C)c2cc1Cl [SCIO-469 (SD 469)]  IL-1β-stimulated PGE2 synthesis in bovine chondrocyte pellets / ARC tissues               IC50  107

* * *

Test system: chondrocytes
Format: cell-based
measured.property: cytotoxicity to chondrocytes, LDH (in words)

molecule	val
Nc1nc(Nc2ccc(S(N)(=O)=O)cc2)nn1C(=O)c1c(F)cccc1F	little toxicity
CO[C@H]1C[C@@H]2CC[C@@H](C)[C@@](O)(O2)C(=O)C(=O)N2CCCC[C@H]2C(=O)O[C@H]([C@H](C)C[C@@H]2CC[C@@H](O)[C@H](OC)C2)CC(=O)[C@H](C)/C=C(\C)[C@@H](O)[C@@H](OC)C(=O)[C@H](C)C[C@H](C)/C=C/C=C/C=C/1C [Rapamycin, reference compound]	little toxicity
